Documented DC50 across a set of compounds
Biological target: ERα protein (HiBiT-tagged) in ESR1_HiBiT KI MCF7 cells (Homo sapiens)
Sequence (P03372 whole entry): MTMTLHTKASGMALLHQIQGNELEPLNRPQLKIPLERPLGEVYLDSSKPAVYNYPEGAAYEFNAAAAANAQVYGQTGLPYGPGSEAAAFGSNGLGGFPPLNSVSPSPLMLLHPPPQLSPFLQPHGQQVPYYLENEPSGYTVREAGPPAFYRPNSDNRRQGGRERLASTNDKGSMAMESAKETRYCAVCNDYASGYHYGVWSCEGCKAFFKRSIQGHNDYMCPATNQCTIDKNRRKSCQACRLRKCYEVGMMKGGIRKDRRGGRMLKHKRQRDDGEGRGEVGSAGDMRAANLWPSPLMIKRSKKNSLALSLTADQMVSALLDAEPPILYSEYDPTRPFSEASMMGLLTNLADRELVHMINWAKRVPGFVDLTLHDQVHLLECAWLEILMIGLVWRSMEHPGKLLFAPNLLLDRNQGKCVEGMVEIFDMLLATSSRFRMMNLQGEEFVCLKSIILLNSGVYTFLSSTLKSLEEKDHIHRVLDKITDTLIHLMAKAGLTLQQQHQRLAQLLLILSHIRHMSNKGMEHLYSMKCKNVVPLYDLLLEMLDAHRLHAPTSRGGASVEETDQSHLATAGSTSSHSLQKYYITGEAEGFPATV
Assay: Nano Glo HiBiT Lytic Degradation Assay
Format: cell-based
Settings: 6 hours with compound, 14-point dose response 1:3, bell-shape curve fit, half-maximal effect of first Hill model, read-out: MCF7 ESR1 HiBiT - (DC50)
Reply with just the number (in nM).

The cases that follow already have their DC50 on record.
{"COMPOUND": "O=C1CCC(n2ncc3cc(N4CCN(CC5CCN(c6ccc([C@@H]7c8ccc(O)cc8CC[C@@H]7c7ccccc7)cc6)CC5)CC4)ccc32)C(=O)N1 (some centres unmarked)", "DC50, nM": 2}
{"COMPOUND": "Cc1cc(F)c([C@H]2OCc3cc(O)ccc3[C@H]2c2ccc(N3CCC(CN4CCN(c5ccc6c(c5)CN([C@H]5CCC(=O)NC5=O)C6=O)CC4)CC3)cc2)cc1F", "DC50, nM": 0.34}
{"COMPOUND": "O=C1CC[C@H](N2Cc3cc(N4CCN(CC5CCN(c6ccc([C@H]7c8ccc(O)cc8CC[C@H]7C7CCC(F)(F)CC7)cc6)CC5)CC4)ccc3C2=O)C(=O)N1 (single isomer, unassigned)", "DC50, nM": 0.41}

Qu. Given `C[C@@H]1OC2(CCCCC2)[C@H](c2ccc(N3CCC(CN4CCN(c5ccc6c(c5)CN([C@H]5CCC(=O)NC5=O)C6=O)CC4)CC3)cc2)c2ccc(O)cc21` , state its recorded DC50.
Ans. 1

Qu. Fill in the blank: the reported DC50 of Cc1cc([C@H]2CCc3cc(O)ccc3[C@H]2c2ccc(N3CCC(CN4CCN(c5ccc6c(c5)CN([C@H]5CCC(=O)NC5=O)C6=O)CC4)CC3)cc2)n(C)n1 (single isomer, unassigned) is ____.
Ans. 0.37

Qu. Any idea what DC50 was measured for `O=C1CC[C@H](N2Cc3cc(N4CCN(CC5CCN(c6ccc([C@@H]7c8ccc(O)cc8CC[C@@H]7c7ccccn7)cc6)CC5)CC4)ccc3C2=O)C(=O)N1` ?
Ans. 0.63

Qu. Any idea what its DC50 is? The compound is `O=C1CC[C@@H](N2Cc3cc(N4CCN(CC5CCN(c6ccc([C@@H]7c8ccc(O)cc8CC[C@@H]7c7ccc(F)cc7)cc6)CC5)CC4)ccc3C2=O)C(=O)N1`
Ans. 0.88

Qu. What measured DC50 goes with `O=C1CC[C@H](N2Cc3cc(N4CCN(CC5CCN(c6ccc([C@@H]7c8ccc(O)cc8C(F)(F)C[C@@H]7c7ccccc7F)cc6)CC5)CC4)ccc3C2=O)C(=O)N1` ?
Ans. 0.37

Qu. Would you kindly share the measured DC50 for O=C1CC[C@H](N2Cc3cc(N4CCN(CC5CCN(c6ccc(C7c8ccc(O)cc8CCN7C7CCCCC7)cc6)CC5)CC4)ccc3C2=O)C(=O)N1 (some centres unmarked) ?
Ans. 11

Qu. Report DC50 for C[C@@H]1O[C@@H](C2CCCCC2)[C@H](c2ccc(N3CCC(CN4CCN(c5ccc6c(c5)CN([C@H]5CCC(=O)NC5=O)C6=O)CC4)CC3)cc2)c2ccc(O)cc21 (single isomer, unassigned) please.
Ans. 41

Qu. So what does the record say about DC50 for O=C1CCC(c2cccc(N3CC[C@H]4[C@@H]3CCN4CC3CCN(c4ccc([C@@H]5c6ccc(O)cc6CC[C@@H]5c5ccccc5)cc4)CC3)c2)C(=O)N1 (some centres unmarked) ?
Ans. 34

Qu. // query DC50 value for entry `O=C1CC[C@H](N2Cc3cc(N4CCN(CC5CCN(c6ccc([C@@H]7c8ccc(O)c(Cl)c8CC[C@@H]7c7ccccc7)cc6)CC5)CC4)ccc3C2=O)C(=O)N1`
Ans. 4

Qu. Suppose we examine the compound CC(C)C[C@H]1OCc2cc(O)ccc2[C@H]1c1ccc(N2CCC(CN3CCN(c4ccc5c(c4)CN([C@H]4CCC(=O)NC4=O)C5=O)CC3)CC2)cc1 (single isomer, unassigned) ; what DC50 value has been reported?
Ans. 0.48

Qu. # DC50 lookup, item `O=C1CC[C@H](N2Cc3cc(N4CCN(C(=O)C5CCN(c6ccc([C@@H]7c8ccc(O)cc8CC[C@@H]7c7ccccc7)cc6)CC5)CC4)ccc3C2=O)C(=O)N1`
Ans. 0.5

Qu. Which DC50 is reported for this compound? O=C1CCC(n2ncc3cc(N4CCN(CC5CCN(c6ccc([C@@H]7c8ccc(O)cc8CO[C@@H]7c7ccccc7)cc6)CC5)CC4)ccc32)C(=O)N1 (some centres unmarked)
Ans. 0.83

Qu. So what does the record say about DC50 for O=C1CC[C@H](N2Cc3cc(N4CCN(CC5CCN(c6ccc([C@@H]7c8ccc(O)cc8CO[C@@H]7CC7CCCC7)cc6)CC5)CC4)ccc3C2=O)C(=O)N1 (single isomer, unassigned) ?
Ans. 0.92
